Sourced from patent US20210147541A1

# target system: T1, human CADM3 (human, UniProt Q8N126 25-398)
# T1 construct: Full-length gene expressed transiently on Expi293F cells; also called cell adhesion molecule 3; human CADM3/Expi293F cells
# T1 sequence: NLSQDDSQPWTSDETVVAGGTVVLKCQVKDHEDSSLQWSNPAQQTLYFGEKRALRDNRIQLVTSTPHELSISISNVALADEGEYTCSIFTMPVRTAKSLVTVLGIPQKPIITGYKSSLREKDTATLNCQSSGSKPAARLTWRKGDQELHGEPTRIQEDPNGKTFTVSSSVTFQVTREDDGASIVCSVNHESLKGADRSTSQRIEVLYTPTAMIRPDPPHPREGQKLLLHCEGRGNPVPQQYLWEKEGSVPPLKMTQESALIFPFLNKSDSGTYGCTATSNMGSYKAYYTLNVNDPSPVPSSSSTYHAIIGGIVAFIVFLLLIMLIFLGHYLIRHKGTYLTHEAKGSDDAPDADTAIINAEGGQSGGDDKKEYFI
# measurement protocol: flow cytometry, 10 ug/mL, human CADM3/Expi293F vs parent Expi293F cells
result type: Mean fluorescence intensity ratio

* iCADM3_3R1-L8_02 VHH-hG4PE(R409K) (Fc fusion, also called iCADM3-3R1-L8_02 humanized antibody; not shown: Hinge-CH2-CH3 region of the human IgG4 heavy chain constant region (IgG4 variant)) QVQLVQSGGGLVQPGGSLRLSCAASGRTFSNYARGWFRQAPGKEREFVAAIDYSGGSTNYADSAKGRFTISRDNSKNTLYLQMNSLRAEDTAVYYCAAPASRRPSWDADGYDYWGQGTLVTVSS | 2.8
* iCADM3_3R1-L8_03 VHH-hG4PE(R409K) (Fc fusion, also called iCADM3-3R1-L8_03 humanized antibody; not shown: Hinge-CH2-CH3 region of the human IgG4 heavy chain constant region (IgG4 variant)) QVQLVESGGGLVQPGGSLRLSCAASGRTFSNYARGWFRQAPGKGREFVAAIDYSGGSTNYADSAKGRFTISRDNSKNTVYLQMNSLRAEDTAVYYCAAPASRRPSWDADGYDYWGQGTLVTVSS | 5.65
* iCADM3_3R1-L11_05 VHH-hG4PE(R409K) (Fc fusion, also called iCADM3-3R1-L11_05 humanized antibody; not shown: Hinge-CH2-CH3 region of the human IgG4 heavy chain constant region (IgG4 variant)) EVQLVESGGGLIQPGGSLRLSCAASGSIFSFNAMGWYRQAPGKGRVLVAVITSGGYTNYADSVKGRFTISRDNSKNTVYLQMNSLRAEDTAVYYCNAEGVYSDYVIMNYWGQGTLVTVSS | 11.1
* iCADM3_3R1-L11_03 VHH-hG4PE(R409K) (Fc fusion, also called iCADM3-3R1-L11_03 humanized antibody; not shown: Hinge-CH2-CH3 region of the human IgG4 heavy chain constant region (IgG4 variant)) EVQLVESGGGLIQPGGSLRLSCAASGSTVSFNAMGWYRQAPGKQRGLVSVITSGGYTNYADSVKGRFTISRDNSKNTVYLQMNSLRAEDTAVYYCNAEGVYSDYVIMNYWGQGTLVTVSS | 24.4
